Assay: Half life in CD-1 mouse brain at 30 mg/kg, po measured for 480 mins by LC-ESI-MS/MS analysis
Type: ADME, organism-based

{"Structure String": "O=S(=O)(c1ccccc1)n1ccc2c(OCCNCC3CCCCC3)cccc21", "Unit Symbol": "h", "half-life": 3}

---

Assay: Half life in CD-1 mouse plasma at 30 mg/kg, po measured for 480 mins by LC-ESI-MS/MS analysis
Type: ADME, organism-based

{"Structure String": "O=S(=O)(c1ccccc1)n1ccc2c(OCCNCC3CCCCC3)cccc21", "half-life (h)": 4.97}

---

Experiment: AUC (0 to t) in CD-1 mouse plasma at 30 mg/kg, po measured for 480 mins by LC-ESI-MS/MS analysis
Type: ADME, organism-based
Design: time 480 min, dose 30 mg/kg

{"Structure String": "O=S(=O)(c1ccccc1)n1ccc2c(OCCNCC3CCCCC3)cccc21", "AUC(0-t) at 8 h [ng·h/mL]": 1800}

---

Assay: MRT in CD-1 mouse brain at 3 mg/kg, iv measured for 480 mins by LC-ESI-MS/MS analysis
Format: ADME, organism-based
Measured Metric: MRT (h)

{"Structure String": "O=S(=O)(c1ccccc1)n1ccc2c(OCCNCC3CCCCC3)cccc21", "Measured Metric": "MRT", "Unit Symbol": "h", "Experimental Result": 2.83}

---

Target: Cholinesterase (Homo sapiens)
Sequence (P06276 whole entry): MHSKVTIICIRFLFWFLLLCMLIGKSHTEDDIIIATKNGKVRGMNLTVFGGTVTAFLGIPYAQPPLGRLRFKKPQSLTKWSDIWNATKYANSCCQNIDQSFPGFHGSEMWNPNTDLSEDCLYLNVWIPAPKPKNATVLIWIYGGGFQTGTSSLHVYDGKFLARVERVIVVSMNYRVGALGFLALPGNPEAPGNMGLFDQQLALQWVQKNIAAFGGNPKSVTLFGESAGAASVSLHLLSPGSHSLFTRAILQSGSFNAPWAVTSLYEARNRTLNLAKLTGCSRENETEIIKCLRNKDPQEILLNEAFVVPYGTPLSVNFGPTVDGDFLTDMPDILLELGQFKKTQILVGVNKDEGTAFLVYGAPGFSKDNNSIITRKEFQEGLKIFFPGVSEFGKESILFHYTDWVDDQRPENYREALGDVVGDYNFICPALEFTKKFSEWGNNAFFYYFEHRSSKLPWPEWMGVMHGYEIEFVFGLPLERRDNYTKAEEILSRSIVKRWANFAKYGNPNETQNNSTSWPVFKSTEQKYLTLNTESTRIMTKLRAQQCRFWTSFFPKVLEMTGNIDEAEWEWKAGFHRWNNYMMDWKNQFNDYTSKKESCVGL
Assay: Inhibition of BuChE in human plasma using BTC as substrate preincubated with enzyme for 5 mins followed by substrate addition for 5 mins by Ellman's method
pIC50: −log10 of the molar value.
Listed here are compounds together with their documented pIC50.

{"Compound": "CC(=O)Oc1cccc(CNCCOc2cccc3c2ccn3S(=O)(=O)c2ccccc2)c1", "pIC50": 5.25}
{"Compound": "CC(C)(C)OC(=O)N1CCCC(CNCCOc2cccc3c2ccn3S(=O)(=O)c2ccccc2)C1 (configuration not stated)", "pIC50": 6.69}
{"Compound": "O=S(=O)(c1ccccc1)n1ccc2c(OCCNCC3CCCC3)cccc21", "pIC50": 5.87}
{"Compound": "CC(C)(C)OC(=O)N1CCCC(CNCCOc2cccc3c2CCN3S(=O)(=O)c2ccccc2)C1 (configuration not stated)", "pIC50": 5.87}
{"Compound": "O=S(=O)(c1ccccc1)n1ccc2c(OCCNCc3cccc(Cl)c3)cccc21", "pIC50": 4.93}
{"Compound": "O=S(=O)(c1ccccc1)n1ccc2c(OCCNCc3ccccc3)cccc21", "pIC50": 5.79}
{"Compound": "CC(C)(C)OC(=O)N1CCCC(CNCCOc2cccc3c2ccn3Cc2ccccc2)C1 (configuration not stated)", "pIC50": 6.94}
{"Compound": "CC(=O)Oc1ccc(CNCCOc2cccc3c2ccn3S(=O)(=O)c2ccccc2)cc1", "pIC50": 5.72}
{"Compound": "CC(C)(C)OC(=O)N1CCCC(CNCCOc2cccc3c2CCN3Cc2ccccc2)C1 (configuration not stated)", "pIC50": 6.76}
{"Compound": "O=S(=O)(c1ccccc1)n1ccc2c(OCCNCc3ccccc3Cl)cccc21", "pIC50": 4.98}
{"Compound": "O=S(=O)(c1ccccc1)n1ccc2c(OCCNCC3CCCCC3)cccc21", "pIC50": 6.26}
{"Compound": "Cc1cccc(CNCCOc2cccc3c2ccn3S(=O)(=O)c2ccccc2)c1", "pIC50": 5.55}

---

Molecular target: Cholinesterase (Equus caballus)
Sequence (P81908 whole entry): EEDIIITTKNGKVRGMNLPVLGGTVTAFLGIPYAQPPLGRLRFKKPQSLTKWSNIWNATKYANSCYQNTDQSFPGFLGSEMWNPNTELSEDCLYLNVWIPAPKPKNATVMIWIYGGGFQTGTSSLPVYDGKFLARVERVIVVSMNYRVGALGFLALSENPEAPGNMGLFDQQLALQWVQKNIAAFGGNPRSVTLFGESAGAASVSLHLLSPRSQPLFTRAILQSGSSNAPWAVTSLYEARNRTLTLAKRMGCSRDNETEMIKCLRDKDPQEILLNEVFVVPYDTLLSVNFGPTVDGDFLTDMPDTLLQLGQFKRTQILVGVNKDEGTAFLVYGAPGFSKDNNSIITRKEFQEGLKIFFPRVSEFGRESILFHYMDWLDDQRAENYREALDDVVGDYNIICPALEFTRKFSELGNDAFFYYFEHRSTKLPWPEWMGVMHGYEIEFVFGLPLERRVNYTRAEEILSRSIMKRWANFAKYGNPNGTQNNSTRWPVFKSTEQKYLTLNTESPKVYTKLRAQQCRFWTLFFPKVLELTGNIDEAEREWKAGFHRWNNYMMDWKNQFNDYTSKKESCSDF
Assay: Inhibition of equine serum BuChE using BTC as substrate preincubated with enzyme for 5 mins followed by substrate addition for 5 mins by Ellman's method
pIC50: −log10 of the molar value.
Classify as follows. Reported pIC50 greater than or equal to 6: condition met. Reported pIC50 below: condition not met.

{"Compound": "O=S(=O)(c1ccccc1)n1ccc2c(OCCNCc3cccc(Cl)c3)cccc21", "Category": "condition met"}
{"Compound": "CC(C)(C)OC(=O)N1CCCC(CNCCOc2cccc3c2[nH]c(=O)n3Cc2ccccc2)C1 (stereo not given)", "Category": "condition met"}
{"Compound": "Cc1cccc(CNCCOc2cccc3c2CCN3S(=O)(=O)c2ccccc2)c1", "Category": "condition not met"}
{"Compound": "O=S(=O)(c1ccccc1)n1ccc2c(OCCNCc3ccc4c(c3)OCCO4)cccc21", "Category": "condition not met"}
{"Compound": "COC(=O)c1ccc(CNCCOc2cccc3c2ccn3S(=O)(=O)c2ccccc2)cc1", "Category": "condition not met"}
{"Compound": "CC(=O)Oc1ccc(CNCCOc2cccc3c2ccn3S(=O)(=O)c2ccccc2)cc1", "Category": "condition met"}
{"Compound": "Cc1cccc(CNCCOc2cccc3c2ccn3S(=O)(=O)c2cccc3ccccc23)c1", "Category": "condition met"}
{"Compound": "O=S(=O)(c1ccccc1)n1ccc2c(OCCNCC3CCCC3)cccc21", "Category": "condition met"}

---

Experiment: Ratio of drug level in brain to plasma in CD-1 mouse at 3 mg/kg, iv by LC-ESI-MS/MS analysis
Format: ADME, organism-based
Conditions: read-out: BPR

{"Structure String": "O=S(=O)(c1ccccc1)n1ccc2c(OCCNCC3CCCCC3)cccc21", "Kp": 3.33}

---

Molecular target: Cholinesterase (Equus caballus)
Test: Inhibition of equine serum BuChE using BTC as substrate preincubated with enzyme for 5 mins followed by substrate addition for 5 mins by Ellman's method
pIC50: −log10 of the molar value.

{"Compound": "CN(C)c1cccc(CNCCOc2cccc3c2ccn3S(=O)(=O)c2ccccc2)c1", "pIC50": 6.05}
{"Compound": "Cc1cccc(CNCCOc2cccc3c2ccn3S(=O)(=O)c2ccccc2)c1", "pIC50": 6.40}
{"Compound": "O=S(=O)(c1ccccc1)n1ccc2c(OCCNCC3CC3)cccc21", "pIC50": 5.65}
{"Compound": "CN(C)c1ccc(CNCCOc2cccc3c2ccn3S(=O)(=O)c2ccccc2)cc1", "pIC50": 5.51}
{"Compound": "O=S(=O)(c1ccccc1)n1ccc2c(OCCNCc3cc(Cl)cc(Cl)c3)cccc21", "pIC50": 6.38}
{"Compound": "Cc1cccc(CNCCOc2cccc3c2CC(=O)N3Cc2ccccc2)c1", "pIC50": 5.73}
{"Compound": "CC(C)(C)OC(=O)N1CCCC(CNCCOc2cccc3c2CCN3Cc2ccccc2)C1 (stereo unspecified)", "pIC50": 7.59}
{"Compound": "COc1ccc(CNCCOc2cccc3c2ccn3S(=O)(=O)c2ccccc2)cc1", "pIC50": 5.88}
{"Compound": "CC(=O)Oc1ccc(CNCCOc2cccc3c2ccn3S(=O)(=O)c2cccc3ccccc23)cc1", "pIC50": 6.58}
{"Compound": "CC(=O)Oc1cccc(CNCCOc2cccc3c2ccn3S(=O)(=O)c2ccccc2)c1", "pIC50": 6.32}
{"Compound": "O=S(=O)(c1ccccc1)n1ccc2c(OCCNCc3ccccc3)cccc21", "pIC50": 6.32}
{"Compound": "CC(C)(C)OC(=O)N1CCC(CNCCOc2cccc3c2ccn3S(=O)(=O)c2ccccc2)CC1", "pIC50": 5.32}
{"Compound": "CC(C)(C)OC(=O)N1CCCC(CNCCOc2cccc3c2ccn3S(=O)(=O)c2cccc3ccccc23)C1 (stereo unspecified)", "pIC50": 8.24}
{"Compound": "Cc1cccc(CNCCOc2cccc3c2CCN3Cc2ccccc2)c1", "pIC50": 5.90}
{"Compound": "CC(C)(C)OC(=O)N1CCCC(CNCCOc2cccc3c2CCN3S(=O)(=O)c2ccccc2)C1 (stereo unspecified)", "pIC50": 6.70}
{"Compound": "CCOc1ccc(CNCCOc2cccc3c2ccn3S(=O)(=O)c2ccccc2)cc1", "pIC50": 5.48}
{"Compound": "Cc1ccc(CNCCOc2cccc3c2ccn3S(=O)(=O)c2ccccc2)o1", "pIC50": 5.52}
{"Compound": "O=S(=O)(c1ccccc1)n1ccc2c(OCCNCc3ccc(F)cc3)cccc21", "pIC50": 6.01}
{"Compound": "O=C1Cc2c(OCCNCc3ccccc3)cccc2N1Cc1ccccc1", "pIC50": 5.35}
{"Compound": "O=S(=O)(c1ccccc1)n1ccc2c(OCCNCC3CCCNC3)cccc21 (stereo unspecified)", "pIC50": 5.65}
{"Compound": "COc1ccc(CNCCOc2cccc3c2ccn3S(=O)(=O)c2ccccc2)cc1OC", "pIC50": 5.48}

---

Assay: MRT in CD-1 mouse brain at 30 mg/kg, po measured for 480 mins by LC-ESI-MS/MS analysis
Format: ADME, organism-based
Measured Metric: MRT (h)

{"Structure String": "O=S(=O)(c1ccccc1)n1ccc2c(OCCNCC3CCCCC3)cccc21", "Experimental Result": 3.24}

---

Assay: Half life in CD-1 mouse plasma at 3 mg/kg, iv measured for 480 mins by LC-ESI-MS/MS analysis
Type: ADME, organism-based
Measured Metric: half-life

{"Structure String": "O=S(=O)(c1ccccc1)n1ccc2c(OCCNCC3CCCCC3)cccc21", "Measured Metric": "half-life", "Experimental Result": "5.53 h"}
